Molecular target: T1, human OX40 expressed on cells (human, UniProt P43489 29-277)
T1 construct: whole, on cells
T1 sequence (looked up): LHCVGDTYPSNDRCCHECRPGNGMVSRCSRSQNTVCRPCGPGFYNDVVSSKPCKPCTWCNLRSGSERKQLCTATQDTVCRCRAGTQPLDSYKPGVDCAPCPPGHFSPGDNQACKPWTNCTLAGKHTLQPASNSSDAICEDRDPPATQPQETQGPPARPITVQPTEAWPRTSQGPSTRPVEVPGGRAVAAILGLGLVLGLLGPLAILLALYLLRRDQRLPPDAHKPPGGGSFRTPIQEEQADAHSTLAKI
Experiment: flow cytometry on activated human CD4+ T cells
Exam item: assign YES to entries whose EC50 is below 1 nM and NO to entries at or above 1 nM. Note that a value of exactly 1 nM receives NO.

{"BINDER": "O34 (antibody, V domains shown) VH: EVQLLESGGGLVQPGGSLRLSCAASGFTFSDYYMSWVRQAPGKGLEWVSGISSSGGNKYYADSVKGRFTISRDNSKNTLYLQMNSLRAEDTAVYYCARHWKRFDYWGQGTLVTVSS VL: QSVLTQPPSASGTPGQRVTISCTGPSSNIGNNDVSWYQQLPGTAPKLLIYANSNRPSGVSDRFSGSKSGTSASLAISGLRSEDEADYYCGTWDYSLSGYVLGGGTKLTVLG", "LABEL": "YES"}
{"BINDER": "O15 (antibody, V domains shown) VH: EVQLLESGGGLVQPGGSLRLSCAASGFTFSSYSMSWVRQAPGKGLEWVSMISSGGGSTYYADSVKGRFTISRDNSKNTLYLQMNSLRAEDTAVYYCARHWRYFDYWGQGTLVTVSS VL: QSVLTQPPSASGTPGQRVTISCSGSSSNIGNNYVSWYQQLPGTAPKLLIYADSKRPSGVPDRFSGSKSGTSASLAISGLRSEDEADYYCGAWDSSLSGYVFGGGTKLTVLG", "LABEL": "NO"}
{"BINDER": "O35 (antibody, V domains shown) VH: EVQLLESGGGLVQPGGSLRLSCAASGFTFSDYSMSWVRQAPGKGLEWVSAISSDGGSTYYADSVKGRFTISRDNSKNTLYLQMNSLRAEDTAVYYCARRWQTFDYWGQGTLVTVSS VL: QSVLTQPPSASGTPGQRVTISCTGSSSNIGSNAVSWYQQLPGTAPKLLIYHDSHPPSGVPDRFSGSKSGTSASLAISGLRSEDEADYYCGAWDSSLSGYVFGGGTKLTVLG", "LABEL": "NO"}
{"BINDER": "O410 (antibody, human IgG1, lambda, V domains shown) VH: EVQLLESGGGLVQPGGSLRLSCAASGFTFSDYYMSWVRQAPGKGLEWVSGIYSDGSRKYYADSVKGRFTISRDNSKNTLYLQMNSLRAEDTAVYYCARHWSRFDYWGQGTLVTVSS VL: QSVLTQPPSASGTPGQRVTISCSGSSSNIGSNYVTWYQQLPRTAPKLLIYYDSNRPSGVPDRFSGSKSGTSASLAISGLRSEDEADYYCGAWDDSLSGYVFGGGTKLTVLG", "LABEL": "YES"}
{"BINDER": "O212 (antibody, V domains shown, also called O212 antibody) VH: EVQLLESGGGLVQPGGSLRLSCAASGFTFSDYAMSWVRQAPGKGLEWVSWIYYDSGSKYYADSVKGRFTISRDNSKNTLYLQMNSLRAEDTAVYYCAKGPGPNGQLAFDYWGQGTLVTVSS VL: QSVLTQPPSASGTPGQRVTISCTGSSSNIGSNSVSWYQQLPGTAPKLLIYANSHRPSGVPDRFSGSKSGTSASLAISGLRSEDEADYYCGAWDYSLSGYVFGGGTKLTVLG", "LABEL": "NO"}

(Q) Is EC50 strictly under 1 nM for the entry O32 (antibody, V domains shown) VH: EVQLLESGGGLVQPGGSLRLSCAASGFTFSSYSMSWVRQAPGKGLEWVSVISSGGGSTYYADSVKGRFTISRDNSKNTLYLQMNSLRAEDTAVYYCARHWRYFDYWGQGTLVTVSS VL: QSVLTQPPSASGTPGQRVTISCSGSSSNIGNNYVSWYQQLPGTAPKLLIYADSKRPSGVPDRFSGSKSGTSASLAISGLRSEDEADYYCGAWDSSLSGYVFGGGTKLTVLG ?
(A) YES
